The measured values listed here are drawn from PubChem BioAssay (NCI).

The following compounds are shown together with reported growth values.
tested on: EKVX NSCLC; experiment: NCI-60 one-dose screen, 48 h (100 = growth as untreated, 0 = no growth, -100 = all killed); settings: 10 µM unless noted
This is part of a sample that, as a whole, favours compounds with a hit. Of some 83,000 tested, about 20% had one in any assay.
Response body: numeric value in %, unit text excluded.

Qu. Data request, read-out growth, for `Clc1ccc2c(N/N=C/c3c[nH]c4ccccc34)ccnc2c1`
Ans. -79.3

Qu. `CCC(=C(c1ccc(OCCN(C)C)cc1)c1ccc(OCCN(C)C)cc1)c1ccc(Cl)cc1` , same question.
Ans. 7.78

Qu. Consider next the compound `O=C(O)c1ccc(-n2c(=O)n(-c3cccc(C(F)(F)F)c3)c(=O)c3cc(-c4ccc(F)cc4F)ccc32)cc1` in the same way.
Ans. 5.67

Qu. Next record, please: `C=C(C)[C@@H]1CC[C@]2(C(=O)NC3CCCCC3)CC[C@]3(C)[C@H](CC[C@@H]4[C@@]5(C)CC[C@H](N)C(C)(C)[C@@H]5CC[C@]43C)[C@@H]12`
Ans. 90.7
